Tested on: L02
Assay: Cytotoxicity against human LO2 cells assessed as reduction in cell viability after 24 hrs by MTT assay
Assay type: cell-based
Details: L02, 24 h
quantity-measured: pIC50
Answers are plain numbers, as −log10 of the molar value.

Completed entries (count: 2):
COc1cc(/C=C2\CN(C)C/C(=C\c3ccc(C#N)cc3)C2=O)cc(OC)c1: 4.85
CN1C/C(=C\c2ccc(C#N)cc2)C(=O)/C(=C/c2ccc(Cl)cc2Cl)C1: 4.97

Query block: Bench note: what pIC50 did CN1C/C(=C\c2cccc([N+](=O)[O-])c2)C(=O)/C(=C/c2ccccc2F)C1 show?
Result block: 4.87

Reference source: ChEMBL document CHEMBL4145528
